SUBJECT_OF_TEST: Dual specificity protein kinase TTK (Homo sapiens)
Sequence (whole entry): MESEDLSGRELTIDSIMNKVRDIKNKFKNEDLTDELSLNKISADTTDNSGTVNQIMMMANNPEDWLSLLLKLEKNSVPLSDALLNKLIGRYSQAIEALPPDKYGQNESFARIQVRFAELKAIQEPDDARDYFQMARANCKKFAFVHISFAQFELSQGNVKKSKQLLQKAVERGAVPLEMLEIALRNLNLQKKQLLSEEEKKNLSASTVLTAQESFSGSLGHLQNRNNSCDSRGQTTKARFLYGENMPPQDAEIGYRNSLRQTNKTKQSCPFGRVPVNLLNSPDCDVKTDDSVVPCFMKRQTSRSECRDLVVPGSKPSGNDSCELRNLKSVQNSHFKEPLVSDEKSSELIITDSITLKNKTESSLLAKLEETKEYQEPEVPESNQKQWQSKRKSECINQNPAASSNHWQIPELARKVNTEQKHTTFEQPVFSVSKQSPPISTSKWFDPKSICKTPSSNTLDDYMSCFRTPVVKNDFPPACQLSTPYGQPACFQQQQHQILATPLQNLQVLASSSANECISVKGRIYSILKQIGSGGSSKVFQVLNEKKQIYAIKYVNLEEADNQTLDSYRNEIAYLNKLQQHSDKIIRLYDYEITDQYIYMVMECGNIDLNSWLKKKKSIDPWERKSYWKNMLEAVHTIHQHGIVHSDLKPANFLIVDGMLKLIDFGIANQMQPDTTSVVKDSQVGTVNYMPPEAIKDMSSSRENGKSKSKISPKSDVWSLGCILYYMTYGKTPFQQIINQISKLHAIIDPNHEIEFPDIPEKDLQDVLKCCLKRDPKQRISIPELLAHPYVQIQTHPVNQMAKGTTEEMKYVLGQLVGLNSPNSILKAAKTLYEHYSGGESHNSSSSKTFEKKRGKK
PROCEDURE_SUMMARY: Inhibition of TTK at 10 uM after 60 mins by TR-FRET assay
RESULT_TYPE: inhibition (%)

O=c1[nH]nc(-c2ccnc(NC3CCCCC3)c2)n1-c1ccc2ccccc2c1 :: 10
O=c1n(Cc2ccccn2)nc(-c2ccnc(NC3CCOCC3)c2)n1-c1ccc2ccccc2c1 :: 0

(a) O=c1[nH]nc(-c2ccnc(NC3CCOCC3)c2)n1-c1ccc2ccccc2c1
(b) O=c1[nH]nc(-c2ccnc(NC3CCCOC3)c2)n1-c1ccc2ccccc2c1 (stereo not given)
(c) O=c1n(C2CCOCC2)nc(-c2ccnc(NC3CCCCC3)c2)n1-c1ccc2ccccc2c1
Rank entries according to their inhibition, from the largest number down. API: response body holds the labels in the requested order.
a, b, c
(a: 44%, b: 30%, c: 3%)

====

SUBJECT_OF_TEST: Serine/threonine-protein kinase PAK 4 (Homo sapiens)
PROCEDURE_SUMMARY: Inhibition of PAK4 at 10 uM after 60 mins by TR-FRET assay
RESULT_TYPE: inhibition (%)

O=c1[nH]nc(-c2ccnc(NC3CCCCC3)c2)n1-c1ccc2ccccc2c1 :: -2
O=c1n(Cc2ccncc2)nc(-c2ccnc(NC3CCCCC3)c2)n1-c1ccc2ccccc2c1 :: -1

(a) O=c1n(C2CCOCC2)nc(-c2ccnc(NC3CCCCC3)c2)n1-c1ccc2ccccc2c1
(b) O=c1[nH]nc(-c2ccnc(NC3CCCOC3)c2)n1-c1ccc2ccccc2c1 (centres undefined)
Of a and b , which carries the smaller reported inhibition figure? Give the chosen item's label as your response.
a

====

SUBJECT_OF_TEST: Mitogen-activated protein kinase 1 (Homo sapiens)
Sequence (P28482 whole entry): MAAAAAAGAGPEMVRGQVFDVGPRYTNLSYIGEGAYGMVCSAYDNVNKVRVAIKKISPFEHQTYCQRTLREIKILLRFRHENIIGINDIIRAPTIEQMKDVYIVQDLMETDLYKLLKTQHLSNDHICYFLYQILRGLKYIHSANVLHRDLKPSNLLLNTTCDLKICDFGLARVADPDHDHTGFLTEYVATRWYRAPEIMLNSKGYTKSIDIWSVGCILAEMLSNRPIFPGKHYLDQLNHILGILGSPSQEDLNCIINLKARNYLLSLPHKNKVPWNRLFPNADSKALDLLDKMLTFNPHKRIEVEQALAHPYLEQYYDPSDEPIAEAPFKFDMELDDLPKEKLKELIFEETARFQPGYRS
PROCEDURE_SUMMARY: Inhibition of MAPK1 at 10 uM after 60 mins by TR-FRET assay
RESULT_TYPE: inhibition (%)

Example results:
O=c1n(Cc2ccccn2)nc(-c2ccnc(NC3CCOCC3)c2)n1-c1ccc2ccccc2c1 :: -1
O=c1n(Cc2ccncc2)nc(-c2ccnc(NC3CCCCC3)c2)n1-c1ccc2ccccc2c1 :: 5
O=c1[nH]nc(-c2ccnc(NC3CCCOC3)c2)n1-c1ccc2ccccc2c1 (stereo unspecified) :: 1

(1) O=c1[nH]nc(-c2ccnc(NC3CCCCC3)c2)n1-c1ccc2ccccc2c1
(2) O=c1[nH]nc(-c2ccnc(NC3CCOCC3)c2)n1-c1ccc2ccccc2c1
(3) O=c1n(C2CCOCC2)nc(-c2ccnc(NC3CCCCC3)c2)n1-c1ccc2ccccc2c1
Rank entries according to their inhibition, from the largest number down. API: response body holds the labels in the requested order.
2, 1, 3

====

SUBJECT_OF_TEST: Tyrosine-protein kinase SYK (Homo sapiens) (UniProt P43405)
PROCEDURE_SUMMARY: Inhibition of SYK at 10 uM after 60 mins by TR-FRET assay
RESULT_TYPE: inhibition (%)

Example results:
O=c1[nH]nc(-c2ccnc(NC3CCCCC3)c2)n1-c1ccc2ccccc2c1 :: 8
O=c1[nH]nc(-c2ccnc(NC3CCOCC3)c2)n1-c1ccc2ccccc2c1 :: 14
O=c1n(Cc2ccncc2)nc(-c2ccnc(NC3CCCCC3)c2)n1-c1ccc2ccccc2c1 :: 7

(P) O=c1[nH]nc(-c2ccnc(NC3CCCOC3)c2)n1-c1ccc2ccccc2c1 (stereo unspecified)
(Q) O=c1n(C2CCOCC2)nc(-c2ccnc(NC3CCCCC3)c2)n1-c1ccc2ccccc2c1
Which record would sort first by descending inhibition, P or Q ? Give the chosen item's label as your response.
P

====

SUBJECT_OF_TEST: Cyclin-dependent kinase 1/cyclin B (Homo sapiens) (UniProt P06493+P14635+Q8WWL7+O95067)
PROCEDURE_SUMMARY: Inhibition of CDK1/cyclin B at 10 uM after 60 mins by TR-FRET assay
Assay type: protein-complex assay
RESULT_TYPE: inhibition (%)

(1) O=c1n(C2CCOCC2)nc(-c2ccnc(NC3CCCCC3)c2)n1-c1ccc2ccccc2c1
(2) O=c1n(Cc2ccccn2)nc(-c2ccnc(NC3CCOCC3)c2)n1-c1ccc2ccccc2c1
Of 1 and 2 , which carries the smaller reported inhibition figure? Give the chosen item's label as your response.
2

(A) O=c1[nH]nc(-c2ccnc(NC3CCOCC3)c2)n1-c1ccc2ccccc2c1
(B) O=c1[nH]nc(-c2ccnc(NC3CCCOC3)c2)n1-c1ccc2ccccc2c1 (stereo unspecified)
Of A and B , which carries the smaller reported inhibition figure? Give the chosen item's label as your response.
B
(B: 4%, A: 10%)

(A) O=c1n(Cc2ccncc2)nc(-c2ccnc(NC3CCCCC3)c2)n1-c1ccc2ccccc2c1
(B) O=c1[nH]nc(-c2ccnc(NC3CCCCC3)c2)n1-c1ccc2ccccc2c1
Of A and B , which carries the smaller reported inhibition figure? Give the chosen item's label as your response.
B
(B: 5%, A: 8%)

====

SUBJECT_OF_TEST: Mitogen-activated protein kinase 14 (Homo sapiens, UniProt Q16539)
Sequence (Q16539 whole entry): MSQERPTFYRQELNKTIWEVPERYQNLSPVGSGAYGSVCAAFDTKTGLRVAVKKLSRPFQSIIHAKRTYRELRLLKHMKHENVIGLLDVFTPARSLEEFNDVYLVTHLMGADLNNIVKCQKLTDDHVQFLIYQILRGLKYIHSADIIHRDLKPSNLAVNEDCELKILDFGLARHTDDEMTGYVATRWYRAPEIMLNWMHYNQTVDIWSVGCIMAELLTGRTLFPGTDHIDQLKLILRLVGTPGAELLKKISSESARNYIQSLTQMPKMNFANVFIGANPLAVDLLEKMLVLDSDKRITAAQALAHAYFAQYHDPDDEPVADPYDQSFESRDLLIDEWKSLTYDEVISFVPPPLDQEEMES
PROCEDURE_SUMMARY: Inhibition of recombinant p38alpha after 60 mins by TR-FRET assay
RESULT_TYPE: IC50

O=c1[nH]nc(-c2ccnc(Nc3ccccc3)c2)n1-c1ccc2ccccc2c1 :: > 50 µM
O=c1[nH]nc(-c2ccnc(Nc3nccs3)c2)n1-c1ccc2ccccc2c1 :: > 50 µM
O=c1[nH]nc(-c2ccnc(NC3CCCC3)c2)n1-c1ccc2ccccc2c1 :: > 50 µM
O=c1n(Cc2ccccn2)nc(-c2ccnc(NC3CCOCC3)c2)n1-c1ccc2ccccc2c1 :: > 50 µM
O=c1n(C2CCNCC2)nc(-c2ccnc(NC3CCOCC3)c2)n1-c1ccc2ccccc2c1 :: > 50 µM
O=c1[nH]nc(-c2ccnc(NC3CCOCC3)c2)n1-c1ccc2ccccc2c1 :: > 50 µM
O=C(Nc1cc(-c2n[nH]c(=O)n2-c2ccc3ccccc3c2)ccn1)C1CC1 :: > 50 µM
O=c1n(C2CCOC2)nc(-c2ccnc(NC3CCOCC3)c2)n1-c1ccc2ccccc2c1 (stereo not given) :: > 50 µM

Assign IC50 to the following record: `O=c1[nH]nc(-c2ccnc(NC3CCCCC3)c2)n1-c1ccc2ccccc2c1`
> 50 µM

Assign IC50 to the following record: `O=C(Nc1cc(-c2n[nH]c(=O)n2-c2ccc3ccccc3c2)ccn1)c1ccccc1`
> 50 µM

Assign IC50 to the following record: `O=c1[nH]nc(-c2ccnc(NC3CCC3)c2)n1-c1ccc2ccccc2c1`
> 50 µM

Assign IC50 to the following record: `O=c1[nH]nc(-c2ccncc2)n1-c1ccc2ccccc2c1`
> 50 µM

Assign IC50 to the following record: `O=c1n(-c2ccccn2)nc(-c2ccnc(NC3CCOCC3)c2)n1-c1ccc2ccccc2c1`
> 50 µM

Assign IC50 to the following record: `O=c1[nH]nc(-c2ccnc(NC3CCOCC3)c2)n1-c1ccc2cccc(F)c2c1`
> 50 µM

====

SUBJECT_OF_TEST: Receptor-interacting serine/threonine-protein kinase 2 (Homo sapiens) (UniProt O43353)
Sequence (O43353 whole entry): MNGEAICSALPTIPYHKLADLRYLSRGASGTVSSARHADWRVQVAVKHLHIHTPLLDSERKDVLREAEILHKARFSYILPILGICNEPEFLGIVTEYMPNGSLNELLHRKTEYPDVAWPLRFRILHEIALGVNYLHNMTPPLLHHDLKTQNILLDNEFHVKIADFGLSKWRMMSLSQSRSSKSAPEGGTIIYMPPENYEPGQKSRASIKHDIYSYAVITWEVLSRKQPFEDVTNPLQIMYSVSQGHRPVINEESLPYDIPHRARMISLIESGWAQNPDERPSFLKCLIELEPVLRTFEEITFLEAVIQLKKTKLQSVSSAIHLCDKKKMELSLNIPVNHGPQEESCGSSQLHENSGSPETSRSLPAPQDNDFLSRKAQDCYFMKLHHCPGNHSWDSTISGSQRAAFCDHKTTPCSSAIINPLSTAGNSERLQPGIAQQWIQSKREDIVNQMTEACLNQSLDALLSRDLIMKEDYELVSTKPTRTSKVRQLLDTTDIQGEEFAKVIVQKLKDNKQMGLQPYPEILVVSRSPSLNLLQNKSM
PROCEDURE_SUMMARY: Inhibition of RIPK2 at 10 uM after 60 mins by TR-FRET assay
RESULT_TYPE: inhibition (%)

(A) O=c1[nH]nc(-c2ccnc(NC3CCOCC3)c2)n1-c1ccc2ccccc2c1
(B) O=c1n(Cc2ccccn2)nc(-c2ccnc(NC3CCOCC3)c2)n1-c1ccc2ccccc2c1
(C) O=c1n(C2CCOCC2)nc(-c2ccnc(NC3CCCCC3)c2)n1-c1ccc2ccccc2c1
Your job: order these 3 records by inhibition, ascending. API: response body holds the labels in the requested order.
B, A, C

(1) O=c1n(Cc2ccncc2)nc(-c2ccnc(NC3CCCCC3)c2)n1-c1ccc2ccccc2c1
(2) O=c1[nH]nc(-c2ccnc(NC3CCCOC3)c2)n1-c1ccc2ccccc2c1 (stereo unspecified)
Of 1 and 2 , which carries the smaller reported inhibition figure? Give the chosen item's label as your response.
2
(2: 1%, 1: 8%)
